ASSAY_SYSTEM: human A2A receptor (Homo sapiens)
ASSAY_DETAILS: A2A-antagonist Ca++ functional assay (CGS21680 at EC80)
CONDITION: HEK cells expressing GFP-hA2A and Gα15, inhibition of CGS21680 (EC80)-induced Ca2+ increase
Criterion: IC50 strictly under 200 nM. Met: 1. Not met: -1.

Record excerpt, results attached:
O=C(c1ccc2c(c1)nnn2-c1cnc2ccc(F)cn12)N1CCCCCC1 : -1
Nc1cc(C(=O)N2CCCCCC2)ccc1C(=O)c1cnc2ccc(F)cn12 : -1
Cn1nc(-c2cnc3ccc(F)cn23)c2ccc(C(=O)N3CCCCCCC3)cc21 : 1

Note: attention shifts to another entry.
[Q] Given the entry "COC[C@H]1CCCN1C(=O)c1ccc2c(-c3cnc4ccc(C#N)cn34)nn(C)c2c1" , would its reported IC50 be below 200 nM?
[A] 1
